molecular target: UniProtKB P23458
Sequence (P23458 whole entry): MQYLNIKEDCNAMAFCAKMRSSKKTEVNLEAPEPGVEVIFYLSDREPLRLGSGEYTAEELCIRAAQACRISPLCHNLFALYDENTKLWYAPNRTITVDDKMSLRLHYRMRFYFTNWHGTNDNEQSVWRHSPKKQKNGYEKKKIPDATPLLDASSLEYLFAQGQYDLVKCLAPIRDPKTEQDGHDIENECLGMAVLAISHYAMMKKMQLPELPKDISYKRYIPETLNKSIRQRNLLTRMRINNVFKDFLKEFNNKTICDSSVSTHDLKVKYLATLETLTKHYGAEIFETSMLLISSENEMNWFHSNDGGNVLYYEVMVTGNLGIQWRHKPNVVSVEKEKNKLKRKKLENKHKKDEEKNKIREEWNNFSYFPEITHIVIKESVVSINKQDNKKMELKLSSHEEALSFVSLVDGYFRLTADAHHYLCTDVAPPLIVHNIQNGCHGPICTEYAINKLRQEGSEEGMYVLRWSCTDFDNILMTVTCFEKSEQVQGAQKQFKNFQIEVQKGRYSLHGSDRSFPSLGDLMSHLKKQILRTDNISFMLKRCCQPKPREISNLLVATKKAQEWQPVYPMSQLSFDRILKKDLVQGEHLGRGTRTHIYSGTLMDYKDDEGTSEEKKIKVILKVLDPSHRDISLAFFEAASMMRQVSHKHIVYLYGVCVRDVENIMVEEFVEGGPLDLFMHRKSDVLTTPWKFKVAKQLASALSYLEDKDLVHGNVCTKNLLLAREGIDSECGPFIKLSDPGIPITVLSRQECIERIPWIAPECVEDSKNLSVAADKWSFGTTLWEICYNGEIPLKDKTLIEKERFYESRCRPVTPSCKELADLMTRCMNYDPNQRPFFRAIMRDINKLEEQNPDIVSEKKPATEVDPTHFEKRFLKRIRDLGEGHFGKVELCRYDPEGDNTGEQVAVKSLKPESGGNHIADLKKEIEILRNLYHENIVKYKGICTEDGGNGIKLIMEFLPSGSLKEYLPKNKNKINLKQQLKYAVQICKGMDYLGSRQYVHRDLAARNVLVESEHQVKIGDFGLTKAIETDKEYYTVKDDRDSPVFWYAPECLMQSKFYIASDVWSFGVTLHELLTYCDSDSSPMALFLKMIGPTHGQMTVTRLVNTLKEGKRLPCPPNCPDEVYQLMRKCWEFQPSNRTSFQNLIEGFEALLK
measured.endpoint: pIC50
Conceptually, pIC50 converts a concentration in mol/L into minus its log10.

CN1CCN(c2ncc(-c3cnc4[nH]ccc4n3)c(N[C@H]3CCCN(S(C)(=O)=O)C3)n2)CC1 6.72

Item CC[C@H](CO)Nc1ncc(-c2cnc3[nH]ccc3n2)c(N[C@H]2CCCN(S(C)(=O)=O)C2)n1 ; assay system UniProtKB P23458; pIC50 reported as 6.54
